Reported melting point values are given for each entry in this list.

Consider the reported melting point for these compounds:
- COMPOUND: "COc1cccc2c1CC(C(=O)N1CCCC(C)C1)N2c1cccnn1 (racemic)"
  RESULT: "160 to 162 °C"
- COMPOUND: "C[C@H]1CCCN(C(=O)[C@@H]2Cc3ccccc3N2c2ccc(=O)n(CCF)n2)C1"
  RESULT: "229 to 230 °C"
- COMPOUND: "Cc1ccc(N2c3ccccc3C[C@H]2C(=O)N2CCC[C@H](C)C2)nn1"
  RESULT: "192 to 194 °C"
- COMPOUND: "COc1cccc2c1CC(C(=O)N1CCC[C@H](C)C1)N2c1ccc(Cl)nn1 (stereo partly drawn)"
  RESULT: "223 to 226 °C"
- COMPOUND: "CC1CC(C)CN(C(=O)C2Cc3ccccc3N2c2ccncn2)C1 (racemic)"
  RESULT: "107 to 109 °C"

Recorded melting point (compound C[C@H]1CCCN(C(=O)[C@@H]2Cc3ccccc3N2c2ccc3nnc(Cl)n3n2)C1 ): 268 to 269 °C

Entry Cn1nc(N2c3ccccc3C[C@H]2C(=O)N2CCCCCC2)ccc1=O (hydrate or solvate) ; melting point = 198 to 199 °C

In plain terms, C[C@H]1CCCN(C(=O)[C@@H]2Cc3ccccc3N2c2cnn(C)c(=O)c2)C1 has a documented melting point of 150 to 152 °C

// sample C[C@@H]1CCCN(C(=O)[C@@H]2Cc3ccccc3N2c2ccc(=O)n(C)n2)C1 , its melting point was 191 to 193 °C

Entry under test: C[C@@H]1C[C@H](C)CN(C(=O)[C@H]2Cc3ccccc3N2c2ncccn2)C1 . Its melting point was 159 to 160 °C

C[C@H]1CCCN(C(=O)[C@@H]2Cc3ccccc3N2c2ccc(=O)n(CC(F)F)n2)C1 has a reported melting point of 173 to 175 °C

# melting point of C[C@H]1CCCN(C(=O)[C@@H]2Cc3ccccc3N2c2ccc(=O)n(CC(=O)c3ccccc3)n2)C1 (hydrate or solvate) = 255 °C (dec.)

Per the record, C[C@@H]1C[C@H](C)CN(C(=O)[C@@H]2Cc3ccccc3N2c2ccc([N+](=O)[O-])cn2)C1 has melting point of 208 to 210 °C

Record summary for O=C(C1Cc2ccccc2N1c1ncccn1)N1CCCC(CO)C1 (racemic) : reported melting point = 124 to 128 °C

The value of melting point measured for the compound C[C@@H]1C[C@H](C)CN(C(=O)[C@@H]2Cc3ccccc3N2c2cnc3ccccc3n2)C1 turned out to be 156 to 157 °C

C[C@H]1CCCN(C(=O)[C@@H]2Cc3ccccc3N2c2ccc(=O)n(Cc3ccccc3)n2)C1 has a reported melting point of 220 to 222 °C

melting point measured on C[C@@H]1C[C@H](C)CN(C(=O)[C@@H]2Cc3ccccc3N2c2nc3ccccc3s2)C1 = 170 to 173 °C

====

PROPERTY_LABEL: melting point

Answered cases to consult:
- MOLECULE: "C[C@@H]1CCCN(C(=O)[C@@H]2Cc3ccccc3N2c2cccnn2)C1"
  PROPERTY_LABEL: "melting point"
  RESULT: "169 to 172 °C"
- MOLECULE: "C[C@@H]1C[C@H](C)CN(C(=O)C2Cc3ccccc3N2c2ccc(F)cn2)C1 (relative stereo)"
  PROPERTY_LABEL: "melting point"
  RESULT: "139 to 141 °C"
- MOLECULE: "C[C@@H]1C[C@H](C)CN(C(=O)[C@@H]2Cc3ccccc3N2c2ccc(Cl)nn2)C1"
  PROPERTY_LABEL: "melting point"
  RESULT: "182 to 184 °C"

Consider C[C@H]1CCCN(C(=O)[C@@H]2Cc3ccccc3N2c2ncccn2)C1 . Its measured melting point is 212 to 214 °C

Lab note: Cn1nc(N2c3ccccc3C[C@H]2C(=O)N2CCCCC2)ccc1=O gave melting point of 225 to 227 °C

GET /value?item= COc1cccc2c1CC(C(=O)N1CCCC(C)C1)N2c1ccc(=O)n(C)n1 (racemic) &field=melting point returns 181 to 182 °C

The measured melting point associated with C[C@H]1CCCN(C(=O)[C@@H]2Cc3ccccc3N2c2nc3ccccc3o2)C1 reads 191 to 193 °C

Just so you know, measured melting point for C[C@H]1CCCN(C(=O)[C@@H]2Cc3ccccc3N2c2cnccn2)C1 came out at 174 to 175 °C
